The origin of these recorded values is ChEMBL document CHEMBL1129554.

Test system: MOLT-3
Assay: In vitro antitumor activity in MOLT-3 cell lines
Assay type: functional, cell-based
Details: Homo sapiens
RECORDED ENDPOINT: IC50 (µg/mL)
Just the number in µg/mL, nothing appended.

Exercise: What value of measured IC50 is listed for O=c1[nH]cc(F)c(=O)[nH]1 [FLUOROURACIL] ?
Solution: 1.2

Exercise: Look up IC50 for this compound: O=c1[nH]c(=O)n(C2O[C@H](CO)[C@@H](O)[C@H]2O)c(CO)c1F (some centres not stated)
Solution: 1.2

Please find the next compound below.
Exercise: Given O=c1[nH]c(=O)n([C@@H]2O[C@H](CO)[C@@H](O)[C@H]2O)c(CF)c1F , state its recorded IC50.
Solution: 3.5

----------
Assay: Efficacy was determined as ratio of Vmax to that of Km
Type: ADME
The entries below are paired with their reported Efficacy.
No unit in the answer, only the number.

Would you please look over these solved cases?
Exercise: Request the reported Efficacy associated with Cc1c(F)c(=O)[nH]c(=O)n1C1O[C@H](CO)[C@@H](O)[C@H]1O (stereo partly drawn)
Solution: 0.05

Exercise: Bench note: what Efficacy did O=c1cc(CF)n(C2O[C@H](CO)[C@@H](O)[C@H]2O)c(=O)[nH]1 (stereo partly drawn) show?
Solution: 0.99

Exercise: Recorded Efficacy for O=c1[nH]c(=O)n([C@@H]2O[C@H](CO)[C@@H](O)[C@H]2O)c(CF)c1F , please?
Solution: 0.06

Exercise: I have this compound here, CCc1cc(=O)[nH]c(=O)n1C1O[C@H](CO)[C@@H](O)[C@H]1O (stereo partly drawn) , and I need its recorded Efficacy.
Solution: 0.15

Further cases:
Exercise: Entry under review: O=c1cc(CO)n(C2O[C@H](CO)[C@@H](O)[C@H]2O)c(=O)[nH]1 (stereo partly drawn) . Reported Efficacy?
Solution: 0.53

Exercise: Look up Efficacy: O=c1[nH]c(=O)n(C2O[C@H](CO)[C@@H](O)[C@H]2O)c(CO)c1F (stereo partly drawn)
Solution: 0.09

Exercise: So what's the measured Efficacy for this one? O=c1[nH]c(=O)n([C@@H]2O[C@H](CO)[C@@H](O)[C@H]2O)cc1F [5-FLUOROURIDINE]
Solution: 2.1

Exercise: So what's the measured Efficacy for this one? CCCc1cc(=O)[nH]c(=O)n1C1O[C@H](CO)[C@@H](O)[C@H]1O (stereo partly drawn)
Solution: 0.03

----------
In this section, each of the compounds is paired with its reported IC50.
Test system: K562
Experiment: In vitro antitumor activity in K-562 cell lines
Format: functional, cell-based
Settings: Homo sapiens
Please reply with the bare figure in µg/mL and do not write the unit itself.

Worked cases, answers included:
Exercise: Item O=c1[nH]c(=O)n(C2O[C@H](CO)[C@@H](O)[C@H]2O)c(CO)c1F (some centres not stated) has what recorded IC50?
Solution: 4.9

Exercise: Need IC50, item O=c1[nH]c(=O)n([C@@H]2O[C@H](CO)[C@@H](O)[C@H]2O)cc1F
Solution: 0.026

---
Exercise: // returns reported IC50 for input O=c1[nH]cc(F)c(=O)[nH]1
Solution: 4.3

----------
System: MOLT-3
Assay: In vitro antitumor activity in MOLT-3 cell lines
Assay type: functional, cell-based
Details: Homo sapiens
RECORDED ENDPOINT: IC50

Exercise: What IC50 value was documented for this compound, O=c1cc(CO)n(C2O[C@H](CO)[C@@H](O)[C@H]2O)c(=O)[nH]1 (some centres undefined) ?
Solution: > 10 µg/mL

Exercise: Name the reported IC50 value associated with the compound O=c1[nH]c(=O)n([C@@H]2O[C@H](CO)[C@@H](O)[C@H]2O)cc1F [5-FLUOROURIDINE]
Solution: < 0.01 µg/mL

Exercise: Return reported IC50; argument: Cc1c(F)c(=O)[nH]c(=O)n1C1O[C@H](CO)[C@@H](O)[C@H]1O (some centres undefined)
Solution: > 10 µg/mL

Here's the next entry for you.
Exercise: Consider the compound shown here: O=c1cc(CF)n(C2O[C@H](CO)[C@@H](O)[C@H]2O)c(=O)[nH]1 (some centres undefined) What is its recorded IC50?
Solution: > 10 µg/mL

----------
Test system: K562
Assay: In vitro antitumor activity in K-562 cell lines
Type: functional, cell-based
Details: Homo sapiens
We begin with a simple list: items and their reported IC50.

Exercise: Checklist item: IC50 tested on K562, entry Cc1c(F)c(=O)[nH]c(=O)n1C1O[C@H](CO)[C@@H](O)[C@H]1O (some centres undefined) , value?
Solution: > 10 µg/mL

Exercise: K562 / IC50 / O=c1cc(CO)n(C2O[C@H](CO)[C@@H](O)[C@H]2O)c(=O)[nH]1 (some centres undefined) : value?
Solution: > 10 µg/mL

Exercise: Request: IC50, test system K562, entry O=c1[nH]c(=O)n([C@@H]2O[C@H](CO)[C@@H](O)[C@H]2O)c(CF)c1F
Solution: > 10 µg/mL

Now turn to the next compound.
Exercise: Please state recorded IC50 (tested on K562) of O=c1cc(CF)n(C2O[C@H](CO)[C@@H](O)[C@H]2O)c(=O)[nH]1 (some centres undefined)
Solution: > 10 µg/mL
